// provenance: ChEMBL document CHEMBL1933031

Target: Mast/stem cell growth factor receptor Kit (Homo sapiens)
Test: Inhibition of c-Kit at 10 uM
The reader will find reported inhibition values listed item by item below.

| Smiles Entry | inhibition |
| --- | --- |
| CCCC(CCC)C(=O)Oc1cccc(-c2nc(N3CCOCC3)c3cc4ncccc4n3n2)c1 | 24.9% |
| CC(=O)Oc1cccc(-c2nc(N3CCOCC3)c3cc4ncccc4n3n2)c1 | 24.7% |
| CCN(CC)CCNC(=O)c1c(C)[nH]c(/C=C2\C(=O)Nc3ccc(F)cc32)c1C | 84.8% |
| CCCC(=O)Oc1cccc(-c2nc(N3CCOCC3)c3cc4ncccc4n3n2)c1 | 25.4% |
| CCC(=O)Oc1cccc(-c2nc(N3CCOCC3)c3cc4ncccc4n3n2)c1 | 29% |
| C=CC(=O)Oc1cccc(-c2nc(N3CCOCC3)c3cc4ncccc4n3n2)c1 | 18.9% |
| O=C(Oc1cccc(-c2nc(N3CCOCC3)c3cc4ncccc4n3n2)c1)c1ccco1 | 26.9% |
| O=C(Oc1cccc(-c2nc(N3CCOCC3)c3cc4ncccc4n3n2)c1)c1ccncc1 | 45.2% |
| Oc1cccc(-c2nc(N3CCOCC3)c3cc4ncccc4n3n2)c1 | 49.4% |
